system-name: NNMT (Homo sapiens, UniProt P40261)
protocol-details: NNMT assay (HILIC-MS/MS, formation of MNA)
test-settings: IC50 values (μM), Table 1, alkene linked aromatics; NA 200 μM, SAM 8.5 μM; maximum concentration tested 25 μM
property: IC50 (µM)
Output spec: scalar in µM, unitless text.

For orientation, consider the following solved cases.
compound: N#Cc1c(F)c(F)c(/C=C/CN(CC[C@H](N)C(=O)O)C[C@H]2O[C@@H](n3cnc4c(N)ncnc43)[C@H](O)[C@@H]2O)c(F)c1F [MH610]
system-name: NNMT (Homo sapiens, UniProt P40261)
unit-name: µM
IC50: 0.007

compound: Nc1ncnc2c1ncn2[C@@H]1O[C@H](CN(C/C=C/c2cc(F)c(F)c(F)c2)CC[C@H](N)C(=O)O)[C@@H](O)[C@H]1O [MH611]
system-name: NNMT (Homo sapiens, UniProt P40261)
unit-name: µM
IC50: 0.363

compound: Nc1ncnc2c1ncn2[C@@H]1O[C@H](CN(C/C=C/c2c(F)c(F)cc(F)c2F)CC[C@H](N)C(=O)O)[C@@H](O)[C@H]1O [MH612]
system-name: NNMT (Homo sapiens, UniProt P40261)
unit-name: µM
IC50: 1.81

Value of IC50 reported for the compound Nc1ncnc2c1ncn2[C@@H]1O[C@H](CN(C/C=C/c2c(F)c(F)c(F)c(F)c2F)CC[C@H](N)C(=O)O)[C@@H](O)[C@H]1O [MH609] is 0.4

* * *

Each entry below lists one item and its recorded % of DMSO control at 100 μM, A549, 72 h value.
Test system: A549 human lung cancer line
protocol-details: MTT cell proliferation assay, A549
Assay type: cell-based
test-settings: 72 h incubation

For orientation, consider the following solved cases.
compound: CC(C)OC(=O)[C@@H](N)CCN(C/C=C/c1ccc(C#N)cc1)C[C@H]1O[C@@H](n2cnc3c(N)ncnc32)[C@H](O)[C@@H]1O [GYZ-553]
meas-value: 100 % of DMSO control
--
compound: CCCOC(=O)[C@H](CCN(C/C=C/c1ccc(C#N)cc1)C[C@H]1O[C@@H](n2cnc3c(N)ncnc32)[C@H](O)[C@@H]1O)NC(=O)CC(C)(C)c1c(C)cc(C)cc1OC(C)=O [GYZ-580]
meas-value: 25 % of DMSO control
--
compound: CCOC(=O)[C@H](CCN(C/C=C/c1ccc(C#N)cc1)C[C@H]1O[C@@H](n2cnc3c(N)ncnc32)[C@H](O)[C@@H]1O)NC(=O)CC(C)(C)c1c(C)cc(C)cc1OC(C)=O [NB60]
meas-value: 76 % of DMSO control
--
compound: COC(=O)[C@@H](N)CCN(C/C=C/c1ccc(C#N)cc1)C[C@H]1O[C@@H](n2cnc3c(N)ncnc32)[C@H](O)[C@@H]1O [GYZ-494]
meas-value: 88 % of DMSO control

# evaluate next
Value of % of DMSO control at 100 μM, A549, 72 h reported for the compound N#Cc1ccc(/C=C/CN(CC[C@H](N)C(=O)O)C[C@H]2O[C@@H](n3cnc4c(N)ncnc43)[C@H](O)[C@@H]2O)cc1 [GYZ-319] is 66 % of DMSO control

* * *

system-name: NNMT (Homo sapiens)
Sequence (P40261 1-264): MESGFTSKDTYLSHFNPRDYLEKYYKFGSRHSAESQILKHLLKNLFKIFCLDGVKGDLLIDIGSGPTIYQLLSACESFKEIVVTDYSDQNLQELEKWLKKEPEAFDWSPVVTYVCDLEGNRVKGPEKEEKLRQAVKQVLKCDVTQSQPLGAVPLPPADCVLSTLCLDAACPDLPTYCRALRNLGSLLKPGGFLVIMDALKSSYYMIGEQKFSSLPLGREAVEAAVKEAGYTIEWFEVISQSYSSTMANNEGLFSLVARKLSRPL
protocol-details: NNMT assay (HILIC-MS/MS, formation of MNA)
test-settings: IC50 values (nM), Table 6, amino acid replacement; NA 200 μM, SAM 8.5 μM; maximum concentration tested 25 μM
Each entry below lists one item and its recorded log10(IC50) value.
All values: base-10 log of IC50 in nM.

structure-smiles-string: N#Cc1ccc(/C=C/CN(C/C=C/c2ccc(S(=O)(=O)F)cc2)C[C@H]2O[C@@H](n3cnc4c(N)ncnc43)[C@H](O)[C@@H]2O)cc1
meas-value: 3.89

Value of log10(IC50) reported for the molecule N#CCC(=O)NCCN(C/C=C/c1ccc(C#N)cc1)C[C@H]1O[C@@H](n2cnc3c(N)ncnc32)[C@H](O)[C@@H]1O is 2.97

Value of log10(IC50) reported for the molecule C=CC(=O)NCCN(C/C=C/c1ccc(C#N)cc1)C[C@H]1O[C@@H](n2cnc3c(N)ncnc32)[C@H](O)[C@@H]1O is 4.32

Value of log10(IC50) reported for the molecule N#Cc1ccc(/C=C/CN(CCC[C@H](N)C(=O)O)C[C@H]2O[C@@H](n3cnc4c(N)ncnc43)[C@H](O)[C@@H]2O)cc1 is 2.55

Value of log10(IC50) reported for the molecule N#Cc1ccc(/C=C/CN(CC(=O)CCl)C[C@H]2O[C@@H](n3cnc4c(N)ncnc43)[C@H](O)[C@@H]2O)cc1 is 2.99

Value of log10(IC50) reported for the molecule N#Cc1ccc(/C=C/CN(CCCNC(=O)CCl)C[C@H]2O[C@@H](n3cnc4c(N)ncnc43)[C@H](O)[C@@H]2O)cc1 is 4.08

Value of log10(IC50) reported for the molecule N#Cc1ccc(/C=C/CN(CCNC(=O)C(F)(F)F)C[C@H]2O[C@@H](n3cnc4c(N)ncnc43)[C@H](O)[C@@H]2O)cc1 is 3.89

Each recorded value in this set is attributed to patent US20240247024A1.
